Origin of measurements: patent US20230312550A1

- SYSTEM NAME: human Fibroblast activation protein alpha (hFAP) (Homo sapiens (Human))
- Sequence (Q12884 38-760): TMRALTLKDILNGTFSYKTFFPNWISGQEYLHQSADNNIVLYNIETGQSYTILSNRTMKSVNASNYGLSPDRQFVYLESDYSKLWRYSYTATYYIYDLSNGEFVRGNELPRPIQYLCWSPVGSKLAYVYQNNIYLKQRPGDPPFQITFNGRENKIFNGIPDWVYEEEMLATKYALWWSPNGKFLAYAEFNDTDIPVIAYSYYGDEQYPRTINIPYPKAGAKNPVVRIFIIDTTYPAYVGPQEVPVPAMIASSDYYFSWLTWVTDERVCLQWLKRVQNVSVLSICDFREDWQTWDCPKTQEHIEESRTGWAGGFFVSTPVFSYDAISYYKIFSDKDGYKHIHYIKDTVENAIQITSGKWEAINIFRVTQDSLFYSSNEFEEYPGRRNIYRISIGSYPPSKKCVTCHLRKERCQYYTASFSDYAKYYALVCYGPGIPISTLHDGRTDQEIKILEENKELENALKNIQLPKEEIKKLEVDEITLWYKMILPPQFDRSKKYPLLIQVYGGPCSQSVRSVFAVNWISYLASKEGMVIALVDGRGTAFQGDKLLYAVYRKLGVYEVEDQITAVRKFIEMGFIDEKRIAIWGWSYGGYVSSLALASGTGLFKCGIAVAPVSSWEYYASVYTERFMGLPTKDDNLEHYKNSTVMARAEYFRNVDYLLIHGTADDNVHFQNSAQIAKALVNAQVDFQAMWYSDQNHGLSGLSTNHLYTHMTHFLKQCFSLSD
- EXPERIMENTAL DETAILS: hFAP inhibition assay (tight binders); further: hFAP 2.4 pM
- Format: biochemical
- RECORDED CONDITIONS: Ala-Pro-AMC 20 μM, n = 1 or geometric mean n = 2-6
pIC50: −log10 of the molar value.
Quick reference: pIC50 of the listed items.
PROPERTY MEASURED: pIC50

>>> observed_value("C[C@H]1CCN(c2ccc3nccc(C(=O)NCC(=O)N4CSC[C@H]4C#N)c3c2)CCO1")
10.24
>>> observed_value("CCC1(C)CN(c2ccc3nccc(C(=O)NCC(=O)N4CSC[C@H]4C#N)c3c2)C1")
9.96
>>> observed_value("N#C[C@@H]1CSCN1C(=O)CNC(=O)c1ccnc2ccc(N3CC4(CCCC4(F)F)C3)cc12")
10.23
>>> observed_value("N#C[C@@H]1CSCN1C(=O)CNC(=O)c1ccnc2ccc(N3CC(F)(c4ccccc4)C3)cc12")
9.72
>>> observed_value("CC1(CC(F)(F)F)CN(c2ccc3nccc(C(=O)NCC(=O)N4CSC[C@H]4C#N)c3c2)C1")
9.92
>>> observed_value("N#C[C@@H]1CSCN1C(=O)CNC(=O)c1ccnc2ccc(N3CCCCC3=O)cc12")
10.10
>>> observed_value("N#C[C@@H]1CSCN1C(=O)CNC(=O)c1ccnc2ccc(N3CCC4(CC4)C3)cc12")
10.39
>>> observed_value("N#C[C@@H]1CSCN1C(=O)CNC(=O)c1ccnc2ccc(N3CCOC4(CCOCC4)C3)cc12")
9.92
>>> observed_value("N#C[C@@H]1CSCN1C(=O)CNC(=O)c1ccnc2ccc(N3CC4(CCC4)C3)cc12")
10.07
>>> observed_value("N#C[C@@H]1CSCN1C(=O)CNC(=O)c1ccnc2ccc(N3C4CCC3CC4)cc12")
9.82
>>> observed_value("C[C@@H]1CCN(c2ccc3nccc(C(=O)NCC(=O)N4CSC[C@H]4C#N)c3c2)C1")
10.08
>>> observed_value("N#C[C@@H]1CSCN1C(=O)CNC(=O)c1ccnc2ccc(N3CC4(CC4)C[C@@H]3CF)cc12")
10.12
>>> observed_value("C[C@H]1CCCN(c2ccc3nccc(C(=O)NCC(=O)N4CSC[C@H]4C#N)c3c2)C1=O (single isomer, unassigned)")
9.59
>>> observed_value("N#C[C@@H]1CSCN1C(=O)CNC(=O)c1ccnc2ccc(N3CC(CF)C3)cc12")
9.92
>>> observed_value("N#C[C@@H]1CSCN1C(=O)CNC(=O)c1ccnc2ccc(-c3ccc(F)cn3)cc12")
10.34
>>> observed_value("N#C[C@@H]1CSCN1C(=O)CNC(=O)c1ccnc2ccc(N3CCC34CCC4)cc12")
9.42

----------
Observed IC50 values for UniProtKB P48147 are listed in what follows.
Sequence (P48147 whole entry): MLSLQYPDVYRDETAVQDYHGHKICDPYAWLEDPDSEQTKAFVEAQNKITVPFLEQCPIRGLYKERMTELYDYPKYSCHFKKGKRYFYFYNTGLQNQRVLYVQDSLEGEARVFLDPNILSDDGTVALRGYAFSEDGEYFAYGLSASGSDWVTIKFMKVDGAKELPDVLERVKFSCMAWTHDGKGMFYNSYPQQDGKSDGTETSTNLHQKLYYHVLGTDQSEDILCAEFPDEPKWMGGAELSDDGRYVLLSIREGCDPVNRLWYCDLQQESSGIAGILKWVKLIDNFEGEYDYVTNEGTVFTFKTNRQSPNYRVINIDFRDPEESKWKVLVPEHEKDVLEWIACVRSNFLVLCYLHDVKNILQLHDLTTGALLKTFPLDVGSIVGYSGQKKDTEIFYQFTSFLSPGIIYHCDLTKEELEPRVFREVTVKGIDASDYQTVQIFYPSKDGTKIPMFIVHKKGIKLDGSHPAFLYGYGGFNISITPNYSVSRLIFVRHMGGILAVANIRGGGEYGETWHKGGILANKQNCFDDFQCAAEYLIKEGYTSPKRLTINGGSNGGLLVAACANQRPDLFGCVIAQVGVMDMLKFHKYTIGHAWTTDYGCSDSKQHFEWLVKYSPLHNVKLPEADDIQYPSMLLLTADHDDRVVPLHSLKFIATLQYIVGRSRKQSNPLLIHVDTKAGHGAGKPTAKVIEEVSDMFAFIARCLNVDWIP
PROPERTY MEASURED: IC50 (nM)

>>> observed_value("C[C@@H]1CCCN1c1ccc2nccc(C(=O)NCC(=O)N3CSC[C@H]3C#N)c2c1")
110
>>> observed_value("N#C[C@@H]1CSCN1C(=O)CNC(=O)c1ccnc2ccc(-n3ccc(-c4ccccc4)c3)cc12")
390
>>> observed_value("N#C[C@@H]1CSCN1C(=O)CNC(=O)c1ccnc2ccc(N3CCC4(CCOCC4)CC3)cc12")
280
>>> observed_value("C[C@]1(F)CCN(c2ccc3nccc(C(=O)NCC(=O)N4CSC[C@H]4C#N)c3c2)C1 (mixture of isomers)")
410
>>> observed_value("N#C[C@@H]1CSCN1C(=O)CNC(=O)c1ccnc2ccc(N3CCOC[C@@H]3C(F)(F)F)cc12 (single isomer, unassigned)")
710
>>> observed_value("CC1(C)CCN1c1ccc2nccc(C(=O)NCC(=O)N3CSC[C@H]3C#N)c2c1")
430
>>> observed_value("CC1(CS(C)(=O)=O)CN(c2ccc3nccc(C(=O)NCC(=O)N4CSC[C@H]4C#N)c3c2)C1")
430
>>> observed_value("CCC1(O)CCN(c2ccc3nccc(C(=O)NCC(=O)N4CSC[C@H]4C#N)c3c2)CC1")
440
>>> observed_value("CC(F)(F)CC1CN(c2ccc3nccc(C(=O)NCC(=O)N4CSC[C@H]4C#N)c3c2)C1")
840
>>> observed_value("CC(C)C1CN(c2ccc3nccc(C(=O)NCC(=O)N4CSC[C@H]4C#N)c3c2)C1")
420
>>> observed_value("N#C[C@@H]1CSCN1C(=O)CNC(=O)c1ccnc2ccc(N3CCC(C(F)(F)F)CC3)cc12")
500
>>> observed_value("N#C[C@@H]1CSCN1C(=O)CNC(=O)c1ccnc2ccc(N3CCCC[C@H]3CF)cc12")
190
>>> observed_value("C[C@H]1COCCCN1c1ccc2nccc(C(=O)NCC(=O)N3CSC[C@H]3C#N)c2c1")
400
>>> observed_value("COC[C@H]1[C@H](C)OCCN1c1ccc2nccc(C(=O)NCC(=O)N3CSC[C@H]3C#N)c2c1")
880
>>> observed_value("N#C[C@@H]1CSCN1C(=O)CNC(=O)c1ccnc2ccc(N3CC(OC(F)(F)F)C3)cc12")
3700
